# experiment notes: Toxicity liver stage against HepG2, at 10uM
# Assay type: cell-based
# Design: test concentration 10 uM, cell line HepG2-A16-CD81EGFP
# measurement setup: human, HepG2-A16-CD81EGFP cells; read-out: INHIBITION
Parameter cytotoxicity at 10 µM: see the listing below.

Use the examples below as a reference point.
1. CN1CCC(c2cccc(CCC(=O)NCC(N)=O)n2)CC1; -20.1%
2. COc1ccc(NC(=O)C(C)(C)C)cc1OCc1cccnc1; -41.1%
3. Cn1cnc(S(=O)(=O)N2CCCc3c(F)cc(F)cc32)c1Cl; 0.333%

Q) State, in one line, measured cytotoxicity at 10 µM of Cc1ccc(-c2nc(C3CCN(C(=O)c4ccnn4C)CC3)no2)cn1
A) -5.17%

Q) State, in one line, measured cytotoxicity at 10 µM of Cc1nc(-c2ccccc2)n(CC(=O)NCC(C)C)n1
A) -2.97%

Q) State, in one line, measured cytotoxicity at 10 µM of C1CC(CN2CCOCC3(CCN(C4CCOCC4)C3)C2)CCO1 (stereo unspecified)
A) -3.37%

Q) State, in one line, measured cytotoxicity at 10 µM of Cc1ccoc1C(=O)N1CC(C(=O)N2CCOCC2)C2(CCOCC2)C1 (stereo unspecified)
A) -1.2%

Q) State, in one line, measured cytotoxicity at 10 µM of Cc1cccc(C(C(=O)NC(C)(C)CN2CCCC2)N(C)C)c1 (stereo unspecified)
A) -3.73%

Q) State, in one line, measured cytotoxicity at 10 µM of Cn1nc(CN2CCCCC2)c2c1CN(C(=O)c1ccccc1)C2
A) 4.83%

Q) State, in one line, measured cytotoxicity at 10 µM of CC(C)n1ncc2c1NC(=O)CSC2C(F)(F)F (stereo unspecified)
A) -11.1%

Q) State, in one line, measured cytotoxicity at 10 µM of C=C(C)COc1cccc(CNCc2nc3ccccc3c(=O)[nH]2)c1
A) -40.9%
